# TEST_TARGET: Lysine-specific demethylase 5D [1-760] (Homo sapiens, UniProt Q9BY66)
# Construct: 1-760
# Sequence (Q9BY66 1-760): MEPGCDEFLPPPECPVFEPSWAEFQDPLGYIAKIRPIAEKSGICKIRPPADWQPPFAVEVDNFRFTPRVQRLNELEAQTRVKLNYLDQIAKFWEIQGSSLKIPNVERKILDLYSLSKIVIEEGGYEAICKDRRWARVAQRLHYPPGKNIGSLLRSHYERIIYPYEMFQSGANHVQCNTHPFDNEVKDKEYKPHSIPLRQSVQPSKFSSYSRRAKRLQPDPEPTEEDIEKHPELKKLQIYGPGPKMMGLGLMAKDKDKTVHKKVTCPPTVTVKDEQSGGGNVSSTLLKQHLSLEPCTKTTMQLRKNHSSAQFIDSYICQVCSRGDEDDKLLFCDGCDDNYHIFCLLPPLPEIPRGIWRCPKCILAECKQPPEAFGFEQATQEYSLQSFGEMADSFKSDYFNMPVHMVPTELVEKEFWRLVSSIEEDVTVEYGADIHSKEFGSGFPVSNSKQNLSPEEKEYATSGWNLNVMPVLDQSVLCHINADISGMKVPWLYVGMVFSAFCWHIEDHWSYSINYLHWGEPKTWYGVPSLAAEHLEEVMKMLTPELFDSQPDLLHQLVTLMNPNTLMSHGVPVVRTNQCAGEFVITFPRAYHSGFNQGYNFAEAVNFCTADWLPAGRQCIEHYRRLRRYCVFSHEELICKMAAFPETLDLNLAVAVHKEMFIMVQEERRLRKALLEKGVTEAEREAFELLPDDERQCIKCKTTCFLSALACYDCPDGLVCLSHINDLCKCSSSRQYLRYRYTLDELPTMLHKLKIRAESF
# ASSAY_SUMMARY: Formaldehyde Dehydrogenase-Coupled Demethylase (FDH) Assay
# STATED_CONDITIONS: 25 °C
# Experimental: For inhibition assays, powders of inhibitor compounds were dissolved in 100% (v/v) DMSO to give a 20 or 50 mM concentration and stored at -20 °C until needed. Various compounds with the concentrations ranging from 1.25 mM to 5 nM in a half-log serial dilution were pre-incubated with the reaction mixture for 15 min ([…] [E], 15 mM peptide [S], […], 0.1 mM αKG, and variable inhibitor [I] in the KDM5 reaction buffer with 10% DMSO). […]
ASSAY_ENDPOINT: IC50

[[record]]
molecule = "Cn1cnc(-c2nccc3c(O)nc(OCCCC(F)(F)F)nc23)c1"
test_target = "Lysine-specific demethylase 5D [1-760] (Homo sapiens, UniProt Q9BY66)"
assay_endpoint = "IC50"
observed_result = "> 200 µM"

